test system: GH3-TRE-Luc cell line; settings: read-out: AC50 (uM) modified / 1000; Tox21_110001=Tox21_200593; viability, 1 nM T3 present, 24 h
measured endpoint: CC50 (µM)
The reply should be a number in µM, with the unit left off.

GET /value?item= CCCCCCCCCCn1cc[n+](C)c1 &field=CC50 returns 6.68

###

test: in vitro; settings: rat, gh3-tre-luc cells, AC50 (uM) modified / 1000, Tox21_110001=Tox21_300778; viability, 1 nM T3 present, 24 h
Structures can show the parent of a compound that is named as a salt.
measured endpoint: CC50 at 24 h

GET /value?item= CNC(=O)Oc1cccc(N=CN(C)C)c1 [Formetanate hydrochloride] &field=CC50 at 24 h returns > 90 µM
